System: phospho-ERK in melanoma derived WM-266-4 cells
Experiment: Mechanistic cellular assay for Raf kinase activity (phospho-ERK, Bio-Plex)
Type: cell-based
Conditions: Homo sapiens, treated 1-2 hr at 37° C., serum free medium, read-out: pERK EC50
Hi there, I'd appreciate the recorded EC50 for every entry that follows.

Recorded EC50, per entry:
Cc1scnc1C(=O)N[C@H](C)c1ncc(C(=O)Nc2cc(C(F)(F)F)c(Cl)cn2)s1 :: 1000 to 10000 nM
C[C@@H](NC(=O)c1ccc2[nH]ccc2c1)c1ncc(C(=O)Nc2cc(C(F)(F)F)c(Cl)cn2)s1 :: 100 to 1000 nM
COc1ccc(C(F)(F)F)cc1NC(=O)c1cc([C@@H](C)NC(=O)c2cnn3ccccc23)no1 :: 100 to 1000 nM

## Input Query (compound): CC(NC(=O)c1cc2c(cn1)ncn2C)c1cnc(Nc2cc(C(C)(C)C)ccc2F)s1 (stereo not shown) ; field requested: EC50
## Output ≤ 100 nM

* * *

Test system: phospho-ERK in melanoma derived WM-266-4 cells
Experiment: Mechanistic cellular assay for Raf kinase activity (phospho-ERK, Bio-Plex)
Format: cell-based
Conditions: Homo sapiens, treated 1-2 hr at 37° C., serum free medium, read-out: pERK EC50
ENDPOINT_LABEL: EC50

Here's what some known entries look like.
Cc1nc2cc(C(=O)N[C@H](C)c3ncc(C(=O)Nc4cc(C(F)(F)F)c(Cl)cn4)s3)ccc2n1C :: 1000 to 10000 nM
C[C@@H](NC(=O)c1cnc(N)s1)c1ncc(C(=O)Nc2cc(C(F)(F)F)c(Cl)cn2)s1 :: ≤ 100 nM
CC(NC(=O)c1cc2c(cn1)ncn2C)c1cnc(Nc2ccc(F)c(S(=O)(=O)C(F)(F)F)c2)cn1 (stereo not drawn) :: ≤ 100 nM
CC(NC(=O)c1cnn2ccccc12)c1ncc(C(=O)Nc2cc(C(F)(F)F)c(Cl)cn2)s1 (stereo not drawn) :: ≤ 100 nM

Provide EC50 for all items below, preserving their order.
1. C[C@@H](NC(=O)c1cnn(Cc2ccccc2)c1)c1ncc(C(=O)Nc2cc(C(F)(F)F)c(Cl)cn2)s1
2. CC(NC(=O)c1ncc2ncn(C)c2n1)c1cnc(Nc2ccc(C(F)(F)F)cc2)cn1 (stereo not drawn)
3. Cc1ncc(C(=O)N[C@H](C)c2ncc(C(=O)Nc3cc(C(F)(F)F)c(Cl)cn3)s2)n1C
4. CC(NC(=O)c1cc2c(cn1)ncn2C)c1cnc(Nc2ccc(C(F)(F)F)cn2)cn1 (stereo not drawn)
5. CC(NC(=O)c1cc2c(cn1)ncn2C)c1cnc(Nc2ccc(C3(C)CC3)cc2)s1 (stereo not drawn)
6. CC(NC(=O)c1cc2ncn(C)c2cn1)c1cnc(Nc2ccc(C(F)(F)F)cc2)s1 (stereo not drawn)
7. CC(NC(=O)c1cc2c(cn1)ncn2C)c1cnc(Nc2cccc(C(C)(C)C(F)(F)F)c2)cn1 (stereo not drawn)
8. C[C@@H](NC(=O)c1ccc2c(ccn2C)c1)c1ncc(C(=O)Nc2cc(C(F)(F)F)c(Cl)cn2)s1

## Output
["1000 to 10000 nM", "1000 to 10000 nM", "≤ 100 nM", "100 to 1000 nM", "100 to 1000 nM", "1000 to 10000 nM", "≤ 100 nM", "1000 to 10000 nM"]

* * *

Tested on: phospho-ERK in melanoma derived WM-266-4 cells
Test: Mechanistic cellular assay for Raf kinase activity (phospho-ERK, Bio-Plex)
Format: cell-based
Details: Homo sapiens, treated 1-2 hr at 37° C., serum free medium, read-out: pERK EC50
pEC50: −log10 of the molar value.
I'd appreciate it if you could supply pEC50 values for the items below.

CC(NC(=O)c1cccc(CN2CCOCC2)c1)c1ncc(C(=O)Nc2cc(C(F)(F)F)c(Cl)cn2)s1 (stereo not drawn) :: 5.00 to 6.00
C[C@@H](NC(=O)c1cc2c(cn1)ncn2C)c1cnc(Nc2ccc(C(F)(F)F)nc2)s1 (single isomer, unassigned) :: 5.00 to 6.00
CCN1CC[C@H](n2cnc3cnc(C(=O)N[C@@H](C)c4cnc(Nc5ccc(C(F)(F)F)cc5)s4)cc32)C1 :: 6.00 to 7.00
CC(NC(=O)c1cc2cn(C)nc2cn1)c1cnc(Nc2ccc(C(F)(F)F)cc2)cn1 (stereo not drawn) :: 6.00 to 7.00
CC(C)N1CC(n2cnc3cnc(C(=O)N[C@H](C)c4cnc(Nc5ccc(C(F)(F)F)cc5)s4)cc32)C1 :: ≥ 7.00

## Input Entry CC(NC(=O)c1cncc(Br)c1)c1ncc(C(=O)Nc2cc(C(F)(F)F)c(Cl)cn2)s1 (stereo not drawn) has what pEC50?
## Output 5.00 to 6.00

* * *

Biological target: V599E Raf (Homo sapiens, UniProt P15056, V600E)
Sequence (P15056 whole entry V600E): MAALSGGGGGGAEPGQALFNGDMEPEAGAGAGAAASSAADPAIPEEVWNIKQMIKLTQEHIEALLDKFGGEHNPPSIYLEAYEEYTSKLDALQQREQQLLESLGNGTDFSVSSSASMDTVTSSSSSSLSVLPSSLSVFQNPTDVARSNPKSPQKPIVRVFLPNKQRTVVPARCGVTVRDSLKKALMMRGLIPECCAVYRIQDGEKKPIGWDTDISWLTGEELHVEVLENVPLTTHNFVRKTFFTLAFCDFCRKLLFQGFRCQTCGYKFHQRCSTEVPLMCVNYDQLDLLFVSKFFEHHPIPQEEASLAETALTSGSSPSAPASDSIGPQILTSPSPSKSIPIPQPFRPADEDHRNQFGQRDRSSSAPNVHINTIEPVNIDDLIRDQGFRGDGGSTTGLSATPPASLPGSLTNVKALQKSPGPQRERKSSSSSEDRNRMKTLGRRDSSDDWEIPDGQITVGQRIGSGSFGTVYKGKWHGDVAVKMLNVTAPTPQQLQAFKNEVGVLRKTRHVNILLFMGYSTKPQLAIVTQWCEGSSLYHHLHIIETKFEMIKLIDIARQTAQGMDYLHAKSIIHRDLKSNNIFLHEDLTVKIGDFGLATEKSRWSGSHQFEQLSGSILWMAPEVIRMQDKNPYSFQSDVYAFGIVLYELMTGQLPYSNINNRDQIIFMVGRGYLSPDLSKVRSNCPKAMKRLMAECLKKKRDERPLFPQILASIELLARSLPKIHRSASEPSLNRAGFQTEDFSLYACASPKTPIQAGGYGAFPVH
Assay: Biochemical FRET assay, mutant Raf (phosphorylation of MEK)
Conditions: 0.125 nM V599E Raf, 100 nM biotin-MEK, 25 μM ATP, read-out: Raf (mut) inhibition
pIC50: −log10 of the molar value.
For each of the compounds below, state its pIC50.

Worked cases, pIC50 given:
CC(NC(=O)c1cc2c(cn1)ncn2CCO)c1cnc(Nc2ccc(C(F)(F)F)cc2)s1 (stereo not drawn) :: ≥ 7.00
Cc1nc2cc(C(=O)N[C@H](C)c3ncc(C(=O)Nc4cc(C(F)(F)F)c(Cl)cn4)s3)ccc2[nH]1 :: ≥ 7.00

Then there is this compound:
## Input Give its pIC50 value. Item: "C[C@@H](NC(=O)c1cn2c(Br)cnc2cn1)c1cnc(Nc2ccc(C(F)(F)F)cc2)s1"
## Output ≥ 7.00

* * *

Target: V599E Raf (Homo sapiens, UniProt P15056, V600E)
Test: Biochemical FRET assay, mutant Raf (phosphorylation of MEK)
Conditions: 0.125 nM V599E Raf, 100 nM biotin-MEK, 25 μM ATP, read-out: Raf (mut) inhibition
pIC50: −log10 of the molar value.
ENDPOINT_LABEL: pIC50

CC(NC(=O)c1ccc2ncn(C)c2c1)c1cnc(Nc2ccc(C(F)(F)F)cc2)s1 (centres unmarked) :: ≥ 7.00
C[C@@H](NC(=O)c1cc2c(cn1)ncn2C)c1cnc(Nc2ccc(C(F)(F)F)cc2)s1 :: ≥ 7.00
CC(NC(=O)c1cc2c(cn1)ncn2CCN(C)C)c1cnc(Nc2ccc(C(F)(F)F)cc2)s1 (centres unmarked) :: ≥ 7.00

// input: 3 compounds below; output: pIC50 for each
1. C[C@H](NC(=O)c1cc2c(cn1)ncn2C1CCC1)c1cnc(Nc2ccc(C(F)(F)F)cc2)cn1
2. CC(NC(=O)c1cc2c(cn1)ncn2C)c1cnc(Nc2ccc(C(F)(F)F)cc2)cn1 (centres unmarked)
3. CCCNc1ncc(C(=O)N[C@H](C)c2ncc(C(=O)Nc3cc(C(F)(F)F)c(Cl)cn3)s2)n1C

## Output
1. 6.00 to 7.00
2. ≥ 7.00
3. 6.00 to 7.00

Can you give me pIC50 for all of these, one by one?
1. C[C@@H](NC(=O)c1csc(-c2ccncc2)n1)c1ncc(C(=O)Nc2cc(C(F)(F)F)c(Cl)cn2)s1
2. COCCn1c(C(=O)NC(C)c2cnc(Nc3ccc(C(F)(F)F)cc3)s2)cnc1C (centres unmarked)

## Output
1: ≥ 7.00; 2: ≥ 7.00

* * *

Molecular target: V599E Raf (Homo sapiens, UniProt P15056, V600E)
Test: Biochemical FRET assay, mutant Raf (phosphorylation of MEK)
Conditions: 0.125 nM V599E Raf, 100 nM biotin-MEK, 25 μM ATP, read-out: Raf (mut) inhibition
ENDPOINT_LABEL: IC50

Cc1n[nH]c(C)c1C(=O)N[C@H](C)c1ncc(C(=O)Nc2cc(C(F)(F)F)c(Cl)cn2)s1 :: ≤ 100 nM
CC(NC(=O)c1cn2c(Cl)cnc2cn1)c1cnc(Nc2ccc(C(F)(F)F)cc2)s1 (centres unmarked) :: ≤ 100 nM
CNCc1c(C(=O)N[C@H](C)c2ncc(C(=O)Nc3cc(C(F)(F)F)c(Cl)cn3)s2)cnn1C :: 1000 to 10000 nM
Cc1ccc(NC(=O)c2cc([C@@H](C)NC(=O)c3cnn4cc(-c5ccncn5)cnc34)no2)cc1C(F)(F)F :: 100 to 1000 nM
CCN1CC[C@@H](n2cnc3cnc(C(=O)N[C@H](C)c4cnc(Nc5ccc(C(F)(F)F)cc5)s4)cc32)C1 :: ≤ 100 nM

Report IC50 for each item below.
1. CC(NC(=O)c1ncc2ncn(C)c2n1)c1cnc(Nc2ccc(C(F)(F)F)cc2)s1 (centres unmarked)
2. CCn1ncc(C(=O)N[C@H](C)c2ncc(C(=O)Nc3cc(C(F)(F)F)c(Cl)cn3)s2)c1C
3. CC(NC(=O)c1cc(N)ccn1)c1ncc(C(=O)Nc2cc(C(F)(F)F)c(Cl)cn2)s1 (centres unmarked)
4. CCN1CC[C@H](n2cnc3cnc(C(=O)N[C@@H](C)c4cnc(Nc5ccc(C(F)(F)F)cc5)s4)cc32)C1
5. C[C@@H](NC(=O)c1cc2c(cn1)ncn2C1CNC1)c1cnc(Nc2ccc(C(F)(F)F)cc2)s1
6. CC(NC(=O)c1ccnc(N2CCOCC2)c1)c1ncc(C(=O)Nc2cc(C(F)(F)F)c(Cl)cn2)s1 (centres unmarked)

## Output
1: ≤ 100 nM; 2: ≤ 100 nM; 3: 100 to 1000 nM; 4: ≤ 100 nM; 5: ≤ 100 nM; 6: 100 to 1000 nM

Need IC50 for each of these compounds.
1. C[C@@H](NC(=O)c1cccc(N)n1)c1ncc(C(=O)Nc2cc(C(F)(F)F)c(Cl)cn2)s1
2. C[C@@H](NC(=O)c1cnc(CN2CCCC2)n1C)c1ncc(C(=O)Nc2cc(C(F)(F)F)c(Cl)cn2)s1
3. C[C@@H](NC(=O)c1cnc(CN2CCOCC2)n1C)c1ncc(C(=O)Nc2cc(C(F)(F)F)c(Cl)cn2)s1

## Output
≤ 100 nM
≤ 100 nM
≤ 100 nM

These data points were gathered from patent US20120040951A1.
